system: STK39; settings: concentration: 1 μM, replicates: in singlicate; n = 1;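 note: KINOMEscan kinase panel screen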
Please respond with reported %Inh for every item in the list.
Give bare numbers, in %.

Worked cases, %Inh given:
MOLECULE | QUANTITY_KIND | MEASURE_UNIT | RECORDED_MEASUREMENT
Cl.c1ccc(Cn2ccc3cc(Nc4ncnc5ccccc45)ccc32)cc1 [GW275568] | %Inh | % | 18
O=C(c1ccc(-c2cc(-c3c[nH]nc3-c3ccccn3)ccn2)cc1)N1CCCC1 [GW792479] | %Inh | % | 0

Now look at this entry.
[Q] For the record Cc1cccc(-c2nc(Nc3ccc4[nH]nnc4c3)c3ccccc3n2)n1 [GW867587] , what value of %Inh is listed for STK39?
[A] 0

All values here come from paper PMC5540273.
